Assignment: determine reported Enz for the given compounds.
# Measured Target: FLuc-C-NLuc (firefly luciferase) (Photinus pyralis, UniProt P08659, form not given/L550V)
# Sequence (P08659 2-550 L550V, form open): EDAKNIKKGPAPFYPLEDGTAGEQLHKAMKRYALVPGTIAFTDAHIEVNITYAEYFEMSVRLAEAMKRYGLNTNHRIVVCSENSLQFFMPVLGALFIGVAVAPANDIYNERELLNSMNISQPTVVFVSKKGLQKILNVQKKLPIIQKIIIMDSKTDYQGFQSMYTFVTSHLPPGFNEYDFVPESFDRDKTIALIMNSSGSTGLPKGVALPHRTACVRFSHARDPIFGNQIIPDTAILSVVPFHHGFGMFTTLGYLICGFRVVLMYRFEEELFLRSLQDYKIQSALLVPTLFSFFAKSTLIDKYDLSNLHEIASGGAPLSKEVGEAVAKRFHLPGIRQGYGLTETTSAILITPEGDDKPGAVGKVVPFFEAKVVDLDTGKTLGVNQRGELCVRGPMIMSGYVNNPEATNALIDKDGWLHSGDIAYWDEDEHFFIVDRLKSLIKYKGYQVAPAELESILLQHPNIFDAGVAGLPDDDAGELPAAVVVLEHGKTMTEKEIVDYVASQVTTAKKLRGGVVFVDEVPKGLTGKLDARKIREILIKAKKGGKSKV
# Experiment: Firefly luciferase (FLuc) enzymatic luminescence assay, FLuc-C-NLuc
# Assay type: biochemical
# Set-up: key: % normalized; no enzyme control = 100% inhibition, DMSO = 0
# Experimental Conditions: Log[Compound], M -6.39
Write the value as a bare number.

Query: For the compound CC1CCC(NC(=O)C2CCN(C(=O)c3ncn4c3COC(c3ccc(Cl)cc3)C4)CC2)CC1 (centres unmarked) [NCGC00449845] , what Enz is on record?
Result: 5.59

Query: Now consider COc1ccc(NC(=O)C2CCN(C(=O)c3ncn4c3COC(c3ccccc3)C4)CC2)cc1Cl (centres unmarked) [NCGC00449919] and answer again.
Result: -32.08

Query: Repeat with CC(NC(=O)C1CCN(C(=O)c2ncn3c2COC(c2ccc(F)cc2)C3)CC1)c1ccc(F)cc1 (centres unmarked) [NCGC00449825]
Result: 3.17

Query: Queued: CC(CNC(=O)C1CCN(C(=O)c2ncn3c2COC(c2ccccc2)C3)CC1)c1ccccc1 (centres unmarked) [compound 00449795]
Result: -11.92

Query: Then this compound: O=C(Nc1cccc(F)c1)C1CCN(C(=O)c2ncn3c2COC(c2ccccc2)C3)CC1 (centres unmarked) [NCGC00449914]
Result: -35.39

###

# Measured Target: FLuc-C-HiBiT (firefly luciferase) (Photinus pyralis, UniProt P08659, form not given/L550V)
# Sequence (P08659 2-550 L550V, form open): as above
# Experiment: SDR assay, FLuc-C-HiBiT
# Experimental Conditions: 10 nM FLuc-C-HiBiT; normalized activity; Log [Compound], M -8.78
Result Type: SDR No ATP
Give only the figure.

Query: Name the reported SDR No ATP value associated with the molecule CC(CNC(=O)C1CCN(C(=O)c2ncn3c2COC(c2ccccc2)C3)CC1)c1ccccc1 (centres unmarked) [compound 00449795]
Result: 11.5

Query: Cool, now Cc1ccc(-n2ncc3c(N4CCCCCC4)ncnc32)cc1 [compound 00139018]
Result: 18.0

Query: Now consider CC1CCCN(c2ncnc3c2cnn3-c2ccccc2)C1 (centres unmarked) [compound 00081381] .
Result: 11.6

Query: Could you do the same for O=C(O)c1cccc2c1CCN2C(=O)Nc1ccc(F)cc1 [compound 00432687] , please?
Result: 12.9

Query: What about this molecule? O=C(O)CCSc1nnc(-c2ccc(Cl)cc2Cl)o1 [compound 00103142]
Result: 14.2

Query: Next molecule: CNC(=O)c1cccc2c1CCN2C(=O)Nc1ccc(C)cc1 [compound 00430160]
Result: 10.2

Query: Same again, this time with Fc1ccc(-c2cn3cc(Cc4ccccc4)sc3n2)cc1 [compound 00102110]
Result: 11.4

Query: Another molecule: COc1ccc(-c2nc(-c3ccc(C(=O)O)cc3)no2)cc1 [compound 00168104]
Result: 11.7

###

# Measured Target: FLuc-C-HiBiT (firefly luciferase) (Photinus pyralis, UniProt P08659, form not given/L550V)
# Experiment: SDR assay, FLuc-C-HiBiT
# Experimental Conditions: 10 nM FLuc-C-HiBiT; normalized activity; Log [Compound], M -7.82
For each record, write down the corresponding SDR + 10 mM ATP.
Lab note: record just the number, no unit beside it.

Query: SDR + 10 mM ATP of CC1CCCN(c2ncnc3c2cnn3-c2ccccc2)C1 (centres unmarked) [compound 00081381] on FLuc-C-HiBiT (firefly luciferase) (Photinus pyralis, UniProt P08659, form not given/L550V)?
Result: 10.8

Query: How about CNC(=O)c1cccc2c1CCN2C(=O)Nc1ccc(C)cc1 [compound 00430160] ?
Result: 11.3

Query: Moving on to the next compound: CC(CNC(=O)C1CCN(C(=O)c2ncn3c2COC(c2ccccc2)C3)CC1)c1ccccc1 (centres unmarked) [compound 00449795]
Result: 10.0

Query: Proceed to O=C(O)CCSc1nnc(-c2ccc(Cl)cc2Cl)o1 [compound 00103142]
Result: 12.1

Query: Same question for Fc1ccc(-c2cn3cc(Cc4ccccc4)sc3n2)cc1 [compound 00102110] please.
Result: 11.2

Query: Another compound to look at: O=C(O)c1cccc2c1CCN2C(=O)Nc1ccc(F)cc1 [compound 00432687]
Result: 100.5

Query: Follow-up entry: COc1ccc(-c2nc(-c3ccc(C(=O)O)cc3)no2)cc1 [compound 00168104]
Result: 22.7

Query: Okay, and Cc1ccc(-n2ncc3c(N4CCCCCC4)ncnc32)cc1 [compound 00139018] ?
Result: 14.4

###

# Measured Target: FLuc-C-HiBiT (firefly luciferase) (Photinus pyralis, UniProt P08659, form not given/L550V)
# Experiment: Firefly luciferase (FLuc) enzymatic luminescence assay, FLuc-C-HiBiT
# Format: biochemical
# Design: key: % normalized; no enzyme control = 100% inhibition, DMSO = 0
# Experimental Conditions: sheet Figure 1g (values as in Figure 1f); normalized activity; Log [Compound], M -4.48
So I've got a bunch of compounds here, and I need their FLuc Enzyme values.

Query: Could you tell me which FLuc Enzyme is on file for COc1ccc(-c2nc(-c3ccc(C(=O)O)cc3)no2)cc1 ?
Result: -97.8

Query: Check Fc1ccc(-c2cn3cc(Cc4ccccc4)sc3n2)cc1 too.
Result: -91.3

Query: Repeat for the following compound: CNC(=O)c1cccc2c1CCN2C(=O)Nc1ccc(C)cc1
Result: -98.2

###

# Measured Target: FLuc-C-HiBiT (firefly luciferase) (Photinus pyralis, UniProt P08659, form not given/L550V)
# Experiment: SDR assay, FLuc-C-HiBiT
# Experimental Conditions: 10 nM FLuc-C-HiBiT; normalized activity; Log [Compound], M -9.25
Exercise: state measured SDR + 10 mM ATP for each of the compounds provided.
Lab note: record just the number, no unit beside it.

Query: Using the record for CC(CNC(=O)C1CCN(C(=O)c2ncn3c2COC(c2ccccc2)C3)CC1)c1ccccc1 (centres unmarked) , report its SDR + 10 mM ATP.
Result: 7.9

Query: Try this compound too: COc1ccc(-c2nc(-c3ccc(C(=O)O)cc3)no2)cc1
Result: 7.7

Query: Another compound: Cc1ccc(-n2ncc3c(N4CCCCCC4)ncnc32)cc1
Result: 6.9

Query: Try CNC(=O)c1cccc2c1CCN2C(=O)Nc1ccc(C)cc1 next.
Result: 6.4

Query: And for O=C(O)CCSc1nnc(-c2ccc(Cl)cc2Cl)o1 ?
Result: 7.5

Query: Same read-out for O=C(O)c1cccc2c1CCN2C(=O)Nc1ccc(F)cc1 ?
Result: 14.9

Query: And Fc1ccc(-c2cn3cc(Cc4ccccc4)sc3n2)cc1 ?
Result: 7.8

Query: Moving on to the next compound: CC1CCCN(c2ncnc3c2cnn3-c2ccccc2)C1 (centres unmarked)
Result: 6.9

###

Please go through the items and note down their Efficacy (%) FLuc E.
# Measured Target: P. pyralis FLuc (Photinus pyralis)
# Sequence (P08659 whole entry): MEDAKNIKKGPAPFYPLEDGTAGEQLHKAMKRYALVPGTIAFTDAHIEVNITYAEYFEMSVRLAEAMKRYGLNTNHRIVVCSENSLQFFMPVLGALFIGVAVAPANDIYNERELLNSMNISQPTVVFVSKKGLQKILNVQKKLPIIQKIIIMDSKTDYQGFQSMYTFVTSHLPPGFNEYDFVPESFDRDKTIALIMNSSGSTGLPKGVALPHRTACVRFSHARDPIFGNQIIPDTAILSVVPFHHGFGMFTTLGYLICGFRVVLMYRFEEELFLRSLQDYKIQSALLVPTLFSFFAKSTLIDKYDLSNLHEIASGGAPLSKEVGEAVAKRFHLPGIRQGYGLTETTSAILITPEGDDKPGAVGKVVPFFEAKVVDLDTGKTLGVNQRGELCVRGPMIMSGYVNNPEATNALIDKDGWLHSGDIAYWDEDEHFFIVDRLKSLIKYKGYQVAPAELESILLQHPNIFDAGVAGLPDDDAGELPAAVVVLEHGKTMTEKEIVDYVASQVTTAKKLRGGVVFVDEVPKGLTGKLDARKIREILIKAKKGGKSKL
# Experiment: FLuc enzymatic luminescence assay, P. pyralis FLuc
# Format: biochemical
# Experimental Conditions: FLuc enzymatic assay; Clade S follow-up
Please respond with the number in % and leave the unit unwritten.

Query: // Efficacy (%) FLuc E lookup, key: O=C(NCc1ccc(F)cc1F)C1CCN(C(=O)c2ncn3c2COC(c2ccc(F)cc2)C3)CC1 (stereo not shown)
Result: -12.89

Query: Entry to check: CCc1ccc(NC(=O)C2CCN(C(=O)c3ncn4c3COC(c3ccccc3)C4)CC2)cc1 (stereo not shown)
Result: -99.55

Query: Do the same for O=C(NCc1cccc(Cl)c1)C1CCN(C(=O)c2ncn3c2COC(c2ccccc2)C3)CC1 (stereo not shown) please
Result: -81.06

Query: What about O=C(NCc1cccc(F)c1)C1CCN(C(=O)c2ncn3c2COC(c2ccccc2)C3)CC1 (stereo not shown) ?
Result: -83.73

Query: Try the compound O=C(Nc1ccc(F)c(Cl)c1)C1CCN(C(=O)c2ncn3c2COC(c2ccccc2)C3)CC1 (stereo not shown)
Result: -99.81

Query: Thanks! And CCc1cccc(NC(=O)C2CCN(C(=O)c3ncn4c3COC(c3ccccc3)C4)CC2)c1 (stereo not shown) ?
Result: -98.95

Query: COc1ccc(NC(=O)C2CCN(C(=O)c3ncn4c3COC(c3ccccc3)C4)CC2)cc1Cl (stereo not shown) ?
Result: -103.24

###

# Measured Target: FLuc-C-NLuc (firefly luciferase) (Photinus pyralis, UniProt P08659, form not given/L550V)
# Experiment: SDR assay, FLuc-C-NLuc
# Experimental Conditions: 1 nM FLuc-C-NLuc; normalized activity; Log [Compound], M -6.87
Give SDR No ATP for every item shown.
Lab note: write the figure by itself, no unit.

Query: Data request, read-out SDR No ATP, for CC(CNC(=O)C1CCN(C(=O)c2ncn3c2COC(c2ccccc2)C3)CC1)c1ccccc1 (centres unmarked) [compound 00449795]
Result: -1.8

Query: What would you report for Cc1ccc(-n2ncc3c(N4CCCCCC4)ncnc32)cc1 [compound 00139018] ?
Result: 2.8

Query: // next record O=C(O)CCSc1nnc(-c2ccc(Cl)cc2Cl)o1 [compound 00103142]
Result: 4.7

Query: And the next one, O=C(O)c1cccc2c1CCN2C(=O)Nc1ccc(F)cc1 [compound 00432687] ?
Result: 9.1

Query: Now the compound CC1CCCN(c2ncnc3c2cnn3-c2ccccc2)C1 (centres unmarked) [compound 00081381]
Result: 4.7

Query: CNC(=O)c1cccc2c1CCN2C(=O)Nc1ccc(C)cc1 [compound 00430160] , same question.
Result: 1.8

Query: Now consider COc1ccc(-c2nc(-c3ccc(C(=O)O)cc3)no2)cc1 [compound 00168104] and answer again.
Result: 5.7

Query: Please answer likewise for Fc1ccc(-c2cn3cc(Cc4ccccc4)sc3n2)cc1 [compound 00102110]
Result: 7.8

This collection of values is drawn from paper PMC12064818.
